Origin of the recorded values: paper PMC12104086

Molecular target: T1, recombinant human alphavbeta3 integrin (human, UniProt P06756 31-1048; P05106 27-718)
T1 chain 1: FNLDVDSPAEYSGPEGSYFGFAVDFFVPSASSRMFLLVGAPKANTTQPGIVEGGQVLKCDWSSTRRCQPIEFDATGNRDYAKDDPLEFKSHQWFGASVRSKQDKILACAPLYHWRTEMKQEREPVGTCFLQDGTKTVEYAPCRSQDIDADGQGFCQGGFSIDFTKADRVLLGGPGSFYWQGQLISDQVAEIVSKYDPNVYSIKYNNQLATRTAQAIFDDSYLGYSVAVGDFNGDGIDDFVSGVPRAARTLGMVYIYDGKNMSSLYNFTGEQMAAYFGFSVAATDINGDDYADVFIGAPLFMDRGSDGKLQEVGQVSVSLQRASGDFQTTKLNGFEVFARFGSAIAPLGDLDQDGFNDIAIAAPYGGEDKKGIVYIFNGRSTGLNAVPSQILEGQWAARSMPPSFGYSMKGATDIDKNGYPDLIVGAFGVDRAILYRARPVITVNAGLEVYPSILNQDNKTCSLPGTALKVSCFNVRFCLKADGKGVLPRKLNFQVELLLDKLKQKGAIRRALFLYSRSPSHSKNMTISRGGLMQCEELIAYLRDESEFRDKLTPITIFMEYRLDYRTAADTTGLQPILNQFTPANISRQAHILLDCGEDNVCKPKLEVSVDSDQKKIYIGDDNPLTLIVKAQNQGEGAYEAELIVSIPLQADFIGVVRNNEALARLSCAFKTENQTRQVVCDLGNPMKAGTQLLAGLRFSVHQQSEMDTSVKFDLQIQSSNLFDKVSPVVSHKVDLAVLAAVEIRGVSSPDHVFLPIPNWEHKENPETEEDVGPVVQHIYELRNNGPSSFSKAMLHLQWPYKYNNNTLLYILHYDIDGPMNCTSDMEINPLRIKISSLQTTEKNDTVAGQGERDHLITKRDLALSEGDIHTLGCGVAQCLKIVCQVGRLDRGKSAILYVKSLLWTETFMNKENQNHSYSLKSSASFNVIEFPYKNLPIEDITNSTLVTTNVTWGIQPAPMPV
T1 chain 2: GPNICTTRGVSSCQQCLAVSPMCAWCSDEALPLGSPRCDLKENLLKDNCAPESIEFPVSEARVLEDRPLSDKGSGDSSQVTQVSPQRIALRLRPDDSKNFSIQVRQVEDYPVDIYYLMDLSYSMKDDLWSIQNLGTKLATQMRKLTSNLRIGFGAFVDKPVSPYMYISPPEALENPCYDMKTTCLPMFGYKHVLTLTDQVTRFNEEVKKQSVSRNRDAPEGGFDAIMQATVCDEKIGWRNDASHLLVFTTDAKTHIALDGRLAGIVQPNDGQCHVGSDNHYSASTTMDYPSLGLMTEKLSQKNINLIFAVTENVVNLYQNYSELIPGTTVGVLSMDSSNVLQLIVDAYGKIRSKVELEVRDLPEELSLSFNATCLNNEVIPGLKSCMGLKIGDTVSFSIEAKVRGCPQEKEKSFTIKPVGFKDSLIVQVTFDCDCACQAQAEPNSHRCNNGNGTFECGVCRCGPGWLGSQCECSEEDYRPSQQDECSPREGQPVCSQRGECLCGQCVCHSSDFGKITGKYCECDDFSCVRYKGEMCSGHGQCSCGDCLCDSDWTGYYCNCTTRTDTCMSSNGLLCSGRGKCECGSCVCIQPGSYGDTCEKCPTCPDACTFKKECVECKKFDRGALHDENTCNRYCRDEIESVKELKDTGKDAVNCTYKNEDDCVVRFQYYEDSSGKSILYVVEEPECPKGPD
Test: SPR
property label: pKd
// pKd: -log10(molar conc.)

Form field: reported pKd of GNFNSSNIMKTCLQNRGD [opsonic peptide 18]
8.96
